System: primary cells from human dental pulp
Assay: Determination of the cytotoxicity (MTS assay)
Type: cell-based
Conditions: 100 μg/mL, 24 h
Procedure: Tested cells: primary from dental pulp in complete high glucose DMEM medium+1 mg ascorbic acid, seeded in 96-well dishes; […] Procedure: Cells (6000/well) are seeded on a 96-well dish to form a monolayer at approximately 40% confluence. […] The absorbance values for each sample are averaged and the standard deviation calculated. The percent viability is calculated on the negative control. […]
Below, each of the molecules is paired with its reported % Viability 24 h value.
readout_type: % Viability 24 h (%)

[[record]]
chem_smiles = "C=C(C)C(=O)OCC[N+](C)(C)CCCCCCCCCCCC[N+](C)(C)CCOC(=O)C(=C)C.[Br-].[Br-]"
result_value = 102.7

[[record]]
chem_smiles = "C=C(C)C(=O)NCc1cc[n+](CCCCCCCCCCCC[n+]2ccc(CNC(=O)C(=C)C)cc2)cc1.[Br-].[Br-]"
result_value = 91.7

[[record]]
chem_smiles = "C=C(C)C(=O)OCC[N+](CC)(CC)CCCCCCCCCCCC[N+](CC)(CC)CCOC(=O)C(=C)C.[Br-].[Br-]"
result_value = 95.9

[[record]]
chem_smiles = "C=C(C)C(=O)Nc1ccc([N+](C)(C)CCCCCCCCCCCC[N+](C)(C)c2ccc(NC(=O)C(C)=O)cc2)cc1.[Br-].[Br-]"
result_value = 11.3


###

system: primary cells from human dental pulp; experiment: Determination of the cytotoxicity (MTS assay); type: cell-based; conditions: 50 μg/mL, 72 h
readout_type: % Viability 72 h (%)

[[record]]
chem_smiles = "C=C(C)C(=O)OCC[N+](C)(C)CCCCCCCCCCCC[N+](C)(C)CCOC(=O)C(=C)C.[Br-].[Br-]"
result_value = 111.0

[[record]]
chem_smiles = "C=C(C)C(=O)OCC[N+](CC)(CC)CCCCCCCCCCCC[N+](CC)(CC)CCOC(=O)C(=C)C.[Br-].[Br-]"
result_value = 70.8

[[record]]
chem_smiles = "C=C(C)C(=O)Nc1ccc([N+](C)(C)CCCCCCCCCCCC[N+](C)(C)c2ccc(NC(=O)C(C)=O)cc2)cc1.[Br-].[Br-]"
result_value = 71.5

[[record]]
chem_smiles = "C=C(C)C(=O)NCc1cc[n+](CCCCCCCCCCCC[n+]2ccc(CNC(=O)C(=C)C)cc2)cc1.[Br-].[Br-]"
result_value = 86.3


###

test system: primary cells from human dental pulp; test: Determination of the cytotoxicity (MTS assay); assay type: cell-based; details: 50 μg/mL, 24 h
readout_type: % Viability 24 h (%)

[[record]]
chem_smiles = "C=C(C)C(=O)Nc1ccc([N+](C)(C)CCCCCCCCCCCC[N+](C)(C)c2ccc(NC(=O)C(C)=O)cc2)cc1.[Br-].[Br-]"
readout_type = "% Viability 24 h"
units_text = "%"
result_value = 81.7

[[record]]
chem_smiles = "C=C(C)C(=O)OCC[N+](C)(C)CCCCCCCCCCCC[N+](C)(C)CCOC(=O)C(=C)C.[Br-].[Br-]"
readout_type = "% Viability 24 h"
units_text = "%"
result_value = 105.6

[[record]]
chem_smiles = "C=C(C)C(=O)NCc1cc[n+](CCCCCCCCCCCC[n+]2ccc(CNC(=O)C(=C)C)cc2)cc1.[Br-].[Br-]"
readout_type = "% Viability 24 h"
units_text = "%"
result_value = 96.1

[[record]]
chem_smiles = "C=C(C)C(=O)OCC[N+](CC)(CC)CCCCCCCCCCCC[N+](CC)(CC)CCOC(=O)C(=C)C.[Br-].[Br-]"
readout_type = "% Viability 24 h"
units_text = "%"
result_value = 83.4


All figures here come from patent US20220402872A1.
